Numbers sourced from the Human Domainome abundance scans (Beltran et al. 2025).

B1: Zinc finger homeobox protein 3, residues 2643 to 2698; numbered along this chain, Q15911 (parent)
chain: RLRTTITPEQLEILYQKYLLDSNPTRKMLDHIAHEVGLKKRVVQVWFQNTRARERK

- Variants of: B1
- ASSAY EXPLANATION: abundance fitness (aPCA) (normalised: wild type 0, dead -1); higher = more abundant; growth selection in yeast, the domain comes from the species named
- EXPERIMENTAL PARAMETERS: Homo sapiens
Assign Met whenever abundance fitness does not fall below -0.02; assign Not met whenever it does.

Answered examples (10):
   mutant  label_class
0    L11V      Not met
1    T25D          Met
2    T25C      Not met
3     I6P      Not met
4    K40A          Met
5    N49M      Not met
6    V42P      Not met
7    D21Q      Not met
8    R26C          Met
9    R51P      Not met

Consider the record given below.
Please indicate if the recorded abundance fitness for K39V meets or exceeds -0.02.
Met
